# assayed.target: GFP-Sc-Dyn AAA3 E/Q (E2488Q) (Saccharomyces cerevisiae, UniProt P36022, E2488Q)
# Sequence (P36022 1219-4092 E2488Q): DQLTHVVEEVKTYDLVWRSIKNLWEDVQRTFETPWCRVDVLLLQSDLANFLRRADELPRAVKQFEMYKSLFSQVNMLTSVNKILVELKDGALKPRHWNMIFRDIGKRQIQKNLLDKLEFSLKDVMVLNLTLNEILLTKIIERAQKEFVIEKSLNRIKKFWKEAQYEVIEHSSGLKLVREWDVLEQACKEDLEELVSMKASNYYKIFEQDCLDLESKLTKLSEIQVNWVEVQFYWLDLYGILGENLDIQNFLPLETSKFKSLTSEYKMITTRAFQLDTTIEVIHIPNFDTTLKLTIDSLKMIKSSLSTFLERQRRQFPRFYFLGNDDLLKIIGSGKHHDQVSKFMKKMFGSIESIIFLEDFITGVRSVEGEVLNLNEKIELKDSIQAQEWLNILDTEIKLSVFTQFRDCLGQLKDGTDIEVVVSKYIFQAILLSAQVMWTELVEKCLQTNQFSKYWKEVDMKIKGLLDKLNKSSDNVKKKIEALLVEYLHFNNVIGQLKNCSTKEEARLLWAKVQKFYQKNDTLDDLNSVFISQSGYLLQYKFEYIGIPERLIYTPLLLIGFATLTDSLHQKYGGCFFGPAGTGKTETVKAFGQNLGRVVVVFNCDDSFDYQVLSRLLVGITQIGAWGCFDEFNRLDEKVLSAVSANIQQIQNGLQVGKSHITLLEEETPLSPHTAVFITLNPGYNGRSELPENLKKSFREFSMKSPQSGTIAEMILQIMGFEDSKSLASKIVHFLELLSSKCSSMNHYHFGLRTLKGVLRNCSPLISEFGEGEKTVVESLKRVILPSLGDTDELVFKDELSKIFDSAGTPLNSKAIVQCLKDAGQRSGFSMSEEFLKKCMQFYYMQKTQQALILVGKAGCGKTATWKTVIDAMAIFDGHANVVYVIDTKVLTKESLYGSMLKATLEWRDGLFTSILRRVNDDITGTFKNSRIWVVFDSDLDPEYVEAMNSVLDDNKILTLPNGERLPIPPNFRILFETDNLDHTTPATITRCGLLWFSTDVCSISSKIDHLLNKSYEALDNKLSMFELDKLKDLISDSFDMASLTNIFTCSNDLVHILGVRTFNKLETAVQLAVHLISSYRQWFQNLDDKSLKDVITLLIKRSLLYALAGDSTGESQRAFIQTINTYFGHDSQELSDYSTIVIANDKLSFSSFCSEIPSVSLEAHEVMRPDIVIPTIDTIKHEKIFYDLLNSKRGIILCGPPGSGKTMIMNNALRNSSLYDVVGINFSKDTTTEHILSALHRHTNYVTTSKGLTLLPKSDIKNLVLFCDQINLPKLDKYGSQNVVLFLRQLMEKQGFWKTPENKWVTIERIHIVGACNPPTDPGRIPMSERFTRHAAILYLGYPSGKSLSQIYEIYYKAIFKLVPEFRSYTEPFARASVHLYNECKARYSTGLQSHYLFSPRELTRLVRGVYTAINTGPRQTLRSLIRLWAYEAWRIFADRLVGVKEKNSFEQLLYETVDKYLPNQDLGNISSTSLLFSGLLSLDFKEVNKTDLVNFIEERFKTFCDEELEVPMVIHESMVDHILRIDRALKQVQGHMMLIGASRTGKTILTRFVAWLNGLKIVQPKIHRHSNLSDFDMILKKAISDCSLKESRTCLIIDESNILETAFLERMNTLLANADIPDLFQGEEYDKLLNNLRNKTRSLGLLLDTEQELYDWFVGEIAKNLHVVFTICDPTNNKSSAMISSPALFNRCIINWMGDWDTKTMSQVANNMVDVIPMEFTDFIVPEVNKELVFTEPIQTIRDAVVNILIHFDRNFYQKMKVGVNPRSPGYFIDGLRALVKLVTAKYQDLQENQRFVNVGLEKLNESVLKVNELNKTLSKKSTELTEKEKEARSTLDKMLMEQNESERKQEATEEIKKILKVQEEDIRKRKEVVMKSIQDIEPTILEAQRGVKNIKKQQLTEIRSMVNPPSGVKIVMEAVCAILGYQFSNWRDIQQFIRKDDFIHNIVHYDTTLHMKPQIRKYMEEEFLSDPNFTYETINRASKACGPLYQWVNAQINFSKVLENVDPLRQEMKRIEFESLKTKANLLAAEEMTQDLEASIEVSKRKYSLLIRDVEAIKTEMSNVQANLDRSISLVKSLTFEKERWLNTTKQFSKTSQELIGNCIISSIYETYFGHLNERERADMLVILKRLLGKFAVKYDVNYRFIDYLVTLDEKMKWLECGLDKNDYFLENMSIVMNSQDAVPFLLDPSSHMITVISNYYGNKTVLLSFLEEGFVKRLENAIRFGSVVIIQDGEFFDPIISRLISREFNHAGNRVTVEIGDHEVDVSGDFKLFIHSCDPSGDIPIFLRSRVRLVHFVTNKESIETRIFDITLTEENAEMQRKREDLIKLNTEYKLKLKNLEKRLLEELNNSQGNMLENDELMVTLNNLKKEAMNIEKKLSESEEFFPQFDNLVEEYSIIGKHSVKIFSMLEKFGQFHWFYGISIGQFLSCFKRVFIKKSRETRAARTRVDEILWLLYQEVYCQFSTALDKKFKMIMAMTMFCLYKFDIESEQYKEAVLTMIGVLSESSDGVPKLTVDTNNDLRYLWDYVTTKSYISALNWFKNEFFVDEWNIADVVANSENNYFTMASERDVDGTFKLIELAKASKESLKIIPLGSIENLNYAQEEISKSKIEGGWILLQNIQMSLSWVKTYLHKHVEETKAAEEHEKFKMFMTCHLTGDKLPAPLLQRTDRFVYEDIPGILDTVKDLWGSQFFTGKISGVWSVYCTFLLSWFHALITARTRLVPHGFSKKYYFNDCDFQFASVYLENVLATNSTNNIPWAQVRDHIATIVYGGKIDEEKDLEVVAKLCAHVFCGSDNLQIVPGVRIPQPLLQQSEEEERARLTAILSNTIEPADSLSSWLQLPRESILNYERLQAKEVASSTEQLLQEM
# protocol.summary: Microscale thermophoresis
measured.parameter: pEC50
pEC50 (log units): -log10 of the concentration in mol/L.

Query: // pEC50 lookup, key: N#Cc1c(C2(c3ccc(Cl)cc3)CC2)nn2c(=O)c(Oc3cccc(Br)c3)c[nH]c12 [compound 20]
Reply: 4.06

* * *

# assayed.target: Sc-Dyn-lyso (Saccharomyces cerevisiae, UniProt P36022)
Entries and their IC50 values follow.
Please answer using the number first and the unit second.

Query: State its IC50 on Sc-Dyn-lyso (Saccharomyces cerevisiae, UniProt P36022): N#Cc1c(C2(c3ccc(Cl)cc3)CC2)nn2c(=O)c(Oc3cccc(Cl)c3)c[nH]c12 [compound 19]
Reply: 14 µM

Query: Field entry: N#Cc1c(C2(c3ccc(Cl)cc3)CC2)nn2c(=O)c(Oc3cccc(Br)c3)c[nH]c12 [compound 20]
Reply: 15 µM
